Entries with reported pKi on A2-adenosine receptors (Rattus norvegicus)
Sequence (P30543 whole entry): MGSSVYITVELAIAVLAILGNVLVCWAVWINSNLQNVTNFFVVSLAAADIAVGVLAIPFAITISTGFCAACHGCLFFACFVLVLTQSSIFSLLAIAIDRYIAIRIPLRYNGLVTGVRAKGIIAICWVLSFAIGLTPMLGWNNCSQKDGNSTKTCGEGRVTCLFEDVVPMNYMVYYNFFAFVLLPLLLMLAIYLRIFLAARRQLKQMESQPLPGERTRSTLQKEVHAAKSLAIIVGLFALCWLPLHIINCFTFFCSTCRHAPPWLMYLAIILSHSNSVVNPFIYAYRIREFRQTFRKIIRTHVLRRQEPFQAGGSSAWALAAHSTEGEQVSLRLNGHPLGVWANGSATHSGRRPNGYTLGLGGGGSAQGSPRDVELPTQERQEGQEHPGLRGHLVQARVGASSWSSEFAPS
pKi: −log10 of the molar value.

Compound	pKi
CCCn1c(=O)c2[nH]c(-c3ccc(OCC(=O)NCCNC(=S)Nc4cc(CO)cc(N=C=S)c4)cc3)nc2n(CCC)c1=O [Compound 9]	6.36
CCCn1c(=O)c2[nH]c(-c3ccc(OCC(=O)NCCNC(=S)Nc4cc(N=C=S)cc(C(=O)OCC)c4)cc3)nc2n(CCC)c1=O [Compound 11]	6.09
CCCn1c(=O)c2[nH]c(-c3ccc(OCC(=O)NCCNC(=S)Nc4cc(N=C=S)cc(NC(=S)NCCNC(=S)Nc5ccc(C(=O)O)c(-c6c7ccc(=O)cc-7oc7cc(O)ccc67)c5)c4)cc3)nc2n(CCC)c1=O [R' = NHCSNH(CH2)2 NHCSNH-fluorescein]	5.75
CCCn1c(=O)c2[nH]c(-c3ccc(OCC(=O)NCCNC(=S)Nc4cc(N=C=S)cc(NC(=S)NCCNc5ccc(N=[N+]=[N-])cc5[N+](=O)[O-])c4)cc3)nc2n(CCC)c1=O	6.07
CCCn1c(=O)c2[nH]c(-c3ccc(OCC(=O)NCCNC(=S)Nc4cc(N=C=S)cc(NC(=S)NCC(=O)OC(C)(C)C)c4)cc3)nc2n(CCC)c1=O	5.48
CCCn1c(=O)c2[nH]c(-c3ccc(OCC(=O)NCCNC(=S)Nc4cccc(N=C=S)c4)cc3)nc2n(CCC)c1=O [Compound 7]	6.46
CCCn1c(=O)c2[nH]c(-c3ccc(OCC(=O)NCCNC(=S)Nc4cc(N=C=S)cc(C(=O)NCCN(C)C)c4)cc3)nc2n(CCC)c1=O [Compound 14]	6.30
CCCn1c(=O)c2[nH]c(-c3ccc(OCC(=O)NCCNC(=S)Nc4cccc(N=C=S)n4)cc3)nc2n(CCC)c1=O [Compound 8]	6.36
CCCn1c(=O)c2[nH]c(-c3ccc(OCC(=O)NCCNC(=S)Nc4cc(N=C=S)cc(NC(=S)NCCNC(C)=O)c4)cc3)nc2n(CCC)c1=O [Compound 25]	5.59
CCCn1c(=O)c2[nH]c(-c3ccc(OCC(=O)NCCNC(=S)Nc4cc(N=C=S)cc(C(=O)NCCNC(=O)CBr)c4)cc3)nc2n(CCC)c1=O [R' = CONH(CH2)2 NHCOCH2 Br]	6.16
CCCn1c(=O)c2[nH]c(-c3ccc(OCC(=O)NCCNC(=S)Nc4cc(N=C=S)cc(C(=O)NCCNc5ccc([N+](=O)[O-])c6nonc56)c4)cc3)nc2n(CCC)c1=O [R' = CONH(CH2)2 NH-NBD]	5.88

Data provenance: patent US5310916A
